Where do these numbers come from? They come from paper PMC10224536.

target: human recombinant αSYN fibrils (Homo sapiens); assay: Competition binding assay against [^3H]SIL26 on αSYN fibrils; settings: read-out: αSYN—Ki [^3H]SIL26; competition vs [^3H]SIL26 (7 nM), αSYN fibrils 35 nM; mean ± SEM
pKi: −log10 of the molar value.

[
  {
    "Molecule": "CN(C)c1ccc(-c2cc(-c3ccnc(Br)c3)n[nH]2)cc1 [MODAG−001, reference compound]",
    "System": "human recombinant αSYN fibrils (Homo sapiens)",
    "pKi": 7.97
  }
]

----------
The molecules listed here are annotated with their pKi.
target: human recombinant αSYN fibrils (Homo sapiens, UniProt P37840); assay: Competition binding assay against [^3H]SIL26 on αSYN fibrils
pKi: −log10 of the molar value.

[
  {
    "Smiles Code": "COc1ccc2c(c1)Sc1cc(-c3cc(-c4ccccn4)n[nH]3)ccc1N2",
    "System": "human recombinant αSYN fibrils (Homo sapiens, UniProt P37840)",
    "pKi": 7.05
  },
  {
    "Smiles Code": "FCCOc1ccc2c(c1)Sc1cc(-c3cc(-c4cccc(F)c4)n[nH]3)ccc1N2",
    "System": "human recombinant αSYN fibrils (Homo sapiens, UniProt P37840)",
    "pKi": "< 6.40"
  },
  {
    "Smiles Code": "COc1ccc2c(c1)Sc1cc(-c3cc(-c4ccccc4)n[nH]3)ccc1N2",
    "System": "human recombinant αSYN fibrils (Homo sapiens, UniProt P37840)",
    "pKi": 6.73
  },
  {
    "Smiles Code": "COc1ccc2c(c1)Sc1cc(-c3cc(-c4cccc(F)c4)n[nH]3)ccc1N2",
    "System": "human recombinant αSYN fibrils (Homo sapiens, UniProt P37840)",
    "pKi": "< 6.40"
  },
  {
    "Smiles Code": "FCCOc1ccc2c(c1)Sc1cc(-c3cc(-c4ccccn4)n[nH]3)ccc1N2",
    "System": "human recombinant αSYN fibrils (Homo sapiens, UniProt P37840)",
    "pKi": "< 6.40"
  },
  {
    "Smiles Code": "FCCOc1ccc2c(c1)Sc1cc(-c3cc(-c4ccccc4)n[nH]3)ccc1N2",
    "System": "human recombinant αSYN fibrils (Homo sapiens, UniProt P37840)",
    "pKi": "< 6.40"
  }
]
